- targetEntity: T1, Bfl-1, Q16548
- T1 chain: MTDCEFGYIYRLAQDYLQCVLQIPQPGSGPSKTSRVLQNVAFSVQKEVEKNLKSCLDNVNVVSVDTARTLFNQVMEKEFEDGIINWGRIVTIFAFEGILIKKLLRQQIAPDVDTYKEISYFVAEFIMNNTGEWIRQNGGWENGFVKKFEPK
- protocolDetails: peptide SPOT array, c-Myc-tagged receptor at 1 uM or 100 nM, anti-c-Myc-Cy3
endpointName: SPOT signal as a fraction of Bim BH3's signal on the same receptor and array

Reference set (4 entries):
HTALENCASLLCIRLDELQEALTSHC [MYO3A] | 0.03
FVGYNSTGAELRHWSDMLANPRRPIA [SYT1] | 0.37
GSPDSMFGISDAVLGDLNQDGFPDIA [ITGA7] | 0.08
KGTAVAICRRLGIFGDTEDVAGKAYT [ATP2A3] | 0.25

(A) GDRAGGRSWCLRRVGMSAGWLLLEDG [RNF8]
(B) DDMFEPHSWNLKELSDDCFQQWGVRP [PRCP]
(C) TETKATFGVHLKIVLDWTERFRDLLL [NOX4]
INPUT: Put the items in sequence by SPOT signal as a fraction of Bim BH3's signal on the same receptor and array, from largest down. Reply with the labels, ordered as the question asks.
OUTPUT: A, C, B
